Target: UniProt:Q8WZA2
Sequence (Q8WZA2 whole entry, looked up): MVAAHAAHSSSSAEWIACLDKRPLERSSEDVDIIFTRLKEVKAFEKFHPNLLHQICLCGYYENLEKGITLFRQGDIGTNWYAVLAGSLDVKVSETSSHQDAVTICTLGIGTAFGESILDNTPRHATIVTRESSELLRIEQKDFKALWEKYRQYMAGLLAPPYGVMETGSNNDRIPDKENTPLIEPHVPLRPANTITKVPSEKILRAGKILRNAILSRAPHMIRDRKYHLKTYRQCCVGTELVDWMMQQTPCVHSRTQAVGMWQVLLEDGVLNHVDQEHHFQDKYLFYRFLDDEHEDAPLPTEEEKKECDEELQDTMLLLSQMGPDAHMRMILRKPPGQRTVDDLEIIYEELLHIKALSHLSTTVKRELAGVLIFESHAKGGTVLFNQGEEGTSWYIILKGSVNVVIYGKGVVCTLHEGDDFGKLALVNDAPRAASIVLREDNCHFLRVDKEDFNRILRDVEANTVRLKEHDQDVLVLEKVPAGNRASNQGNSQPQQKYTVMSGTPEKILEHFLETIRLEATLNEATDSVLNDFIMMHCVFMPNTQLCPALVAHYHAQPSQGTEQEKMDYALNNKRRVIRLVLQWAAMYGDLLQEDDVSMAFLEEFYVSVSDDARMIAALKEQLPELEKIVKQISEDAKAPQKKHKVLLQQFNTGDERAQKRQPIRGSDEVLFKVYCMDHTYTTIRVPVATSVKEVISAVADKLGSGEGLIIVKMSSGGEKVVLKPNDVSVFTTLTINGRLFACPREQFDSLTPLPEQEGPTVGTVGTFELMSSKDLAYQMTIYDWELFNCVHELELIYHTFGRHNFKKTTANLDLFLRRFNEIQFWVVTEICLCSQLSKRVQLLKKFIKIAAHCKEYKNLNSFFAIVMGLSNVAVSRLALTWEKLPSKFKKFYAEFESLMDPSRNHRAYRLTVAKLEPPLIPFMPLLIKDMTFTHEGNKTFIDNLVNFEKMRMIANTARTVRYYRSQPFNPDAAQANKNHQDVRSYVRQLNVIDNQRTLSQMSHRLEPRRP
Assay: Inhibition of 8-NBD-cAMP binding to EPAC2 (unknown origin) by microplate reader analysis
Conditions: concentration not given here
Entries annotated with measured inhibition
Quick note: give the figure in %, leave out the unit.

Previously resolved entries follow.
>  <structure_notation>
Cc1cc(C)c(Nc2c(C)cc(C)cc2C)c(C)c1

>  <test_value>
80

$$$$
>  <structure_notation>
Cc1cc(C)c(Nc2cc(C(F)(F)F)cc(C(F)(F)F)c2)c(C)c1

>  <test_value>
60

$$$$
>  <structure_notation>
Cc1cc(C)c(Nc2ccc(Cl)c(C(F)(F)F)c2)c(C)c1

>  <test_value>
80

$$$$

Could you now look at the following molecule, please?
Fill in: UniProt:Q8WZA2 inhibition for Cc1cc(C)c(Nc2cccc(Cl)c2C)c(C)c1 = 80
